This collection of values is drawn from PubChem BioAssay (NCI).

Test: NCI Yeast Anticancer Drug Screen. Data for the rad50 strain (AID 155)
Settings: S. cerevisiae rad50 strain growth inhibition; at 50.0 µM
This is part of a sample that, as a whole, favours compounds with a hit. Of some 79,000 tested, about 15% had one in any assay. Calls of active or inactive are those of the source. No stated cut-off is given here; in the data, active means growth inhibition above about 70%; inactive means the rest.
Outcomes: active, inactive

[[record]]
compound = "ClCCCc1ccccc1C1=NCCc2ccccc21"
classassignment = "inactive"

[[record]]
compound = "COc1cccc(C(=O)c2ccc(OC)cc2C(=O)O)c1"
classassignment = "inactive"

[[record]]
compound = "Cc1cn(CC(O)c2cc3ccccc3[nH]2)c(=O)[nH]c1=O (stereo not given)"
classassignment = "inactive"

[[record]]
compound = "O=C(Nc1ccc(S(=O)(=O)N2CCCCC2)cc1)OC1CCCC1"
classassignment = "inactive"

[[record]]
compound = "Cn1c(=O)c2c(nc(NCCOC(=S)S)n2C)n(C)c1=O"
classassignment = "inactive"

[[record]]
compound = "Cc1cccc(C)c1Nc1n[nH]c(=S)s1"
classassignment = "inactive"

[[record]]
compound = "Clc1ccc(Cc2ccc(Br)cc2)cc1"
classassignment = "inactive"

[[record]]
compound = "O=C(Nc1cc(C(F)(F)F)ccc1Cl)C(=O)C(C(=O)c1ccc2ccccc2c1)C1OC(=O)c2ccccc21 (stereo not given)"
classassignment = "inactive"

[[record]]
compound = "CCOc1ccc(N=Nc2ccc3oc(=O)c(C(=O)Nc4ccc(OC)cc4)cc3c2)cc1"
classassignment = "inactive"

[[record]]
compound = "NC(=S)Cc1ccccn1"
classassignment = "inactive"

[[record]]
compound = "O=C1c2c(nc3ccccc3c2-c2ccccc2)CN1Nc1ccccn1"
classassignment = "inactive"

[[record]]
compound = "O=S(=O)(C/C=C/COc1ccccc1)c1ccc2ccccc2c1"
classassignment = "inactive"

[[record]]
compound = "Cc1cc(=O)c2cc(Br)cc(Br)c2[nH]1"
classassignment = "inactive"

[[record]]
compound = "CSc1cc(C)c(C#N)c(SC)n1"
classassignment = "inactive"

[[record]]
compound = "COC(=O)CC(C)N(c1ccc(OC)cc1)S(=O)(=O)c1ccc(C)cc1 (stereo not given)"
classassignment = "inactive"

[[record]]
compound = "CC(C)(C)NC(=O)NCc1ccc(Cl)cc1"
classassignment = "inactive"

[[record]]
compound = "O=C(Nc1ccc(Cl)cc1[N+](=O)[O-])Oc1ccc(C(=O)OCc2ccccc2)cc1"
classassignment = "active"

[[record]]
compound = "CC(=O)OC1COC(n2c(=S)n(-c3ccccc3)c(=O)c3cc(Br)ccc32)C(OC(C)=O)C1OC(C)=O (stereo not given)"
classassignment = "inactive"

[[record]]
compound = "C/C(CCn1[nH]c(=O)ccc1=O)=N\\OCCCc1ccccc1"
classassignment = "inactive"

[[record]]
compound = "COc1ccc(CNc2ccccc2)cc1OC"
classassignment = "inactive"

[[record]]
compound = "Nc1cccc(=O)[nH]1"
classassignment = "inactive"

[[record]]
compound = "c1ccc(C2CCOCO2)cc1 (stereo not given)"
classassignment = "inactive"

[[record]]
compound = "CCCCCCCCCCCCCCC(CCCCCCCCCCCCCC)c1ccccc1"
classassignment = "inactive"

[[record]]
compound = "COc1ccc(-c2cc3c(c4cc(OC)ccc24)C(=O)OC3=O)cc1"
classassignment = "inactive"

[[record]]
compound = "CCOC(=O)C1(Br)C(c2ccccc2)NC(=O)NC1(C)Br (stereo not given)"
classassignment = "inactive"

